target: human progesterone receptor-B (Homo sapiens); construct: expressed in transfected cells; host or cells: Chinese hamster ovary (CHO) cells, line CHO-PRB-pMMTV-LUC 1E2-A2; assay: Progesterone receptor-B transactivation assay, progestagenic (agonist) activity, CHO-PRB-pMMTV-LUC 1E2-A2 cells; type: cell-based; details: CHO cells stably transfected with human progesterone receptor-B and MMTV-luciferase reporter; read-out: Progestagenic activity EC50
// reported EC50 for each item listed

[[record]]
compound = "O=C(N[C@H]1CCCN2c3cc(Cl)ccc3Oc3cc(F)c(F)cc3[C@H]12)C(F)(F)F (relative stereo)"
experimental_target = "human progesterone receptor-B (Homo sapiens)"
measure_name = "EC50"
result_value = "< 10 nM"

[[record]]
compound = "O=C(N[C@H]1CCCN2c3c(ccc(Cl)c3Cl)Oc3cc(Br)ccc3[C@H]12)C(F)(F)F (relative stereo)"
experimental_target = "human progesterone receptor-B (Homo sapiens)"
measure_name = "EC50"
result_value = "< 10 nM"


// lookup EC50 for COCCN[C@H]1CCCN2c3cc(Cl)ccc3Oc3ccccc3[C@H]12 (relative stereo)
100 to 10000 nM

// lookup EC50 for O=C(N[C@H]1CCCN2c3c(Cl)cccc3Oc3ccccc3[C@H]12)C(F)(F)F (relative stereo) [Example 42B]
100 to 10000 nM

// lookup EC50 for CN1c2ccccc2[C@@H]2[C@@H](NC(=O)C(F)(F)F)CCCN2c2cc(Cl)ccc21 (relative stereo)
< 10 nM

// lookup EC50 for CN(C(=O)C(F)(F)F)[C@H]1CCCN2c3cc(Cl)ccc3Oc3ccccc3[C@H]12 (relative stereo)
100 to 10000 nM

// lookup EC50 for CC(C)(C)OC(=O)CN[C@H]1CCCN2c3cc(Cl)ccc3Sc3ccccc3[C@H]12 (relative stereo)
100 to 10000 nM

// lookup EC50 for O=C(N[C@H]1CCCN2c3cc(Cl)ccc3Oc3cccc(F)c3[C@H]12)C(F)(F)F (relative stereo)
< 10 nM

// lookup EC50 for O=C(N[C@H]1CCCN2c3cc(Cl)ccc3Oc3ccccc3[C@H]12)OCCl (relative stereo)
100 to 10000 nM

// lookup EC50 for O=C(N[C@H]1CCCN2c3cc(Cl)ccc3Sc3ccccc3[C@H]12)C(F)(F)F (relative stereo)
< 10 nM

// lookup EC50 for O=C(CCl)NC1CCCN2c3cc(Cl)ccc3Oc3ccccc3C12 (centres unmarked)
100 to 10000 nM

// lookup EC50 for O=C(N[C@H]1CCCN2c3cc(F)ccc3Oc3ccccc3[C@H]12)C(F)(F)F (relative stereo)
100 to 10000 nM

// lookup EC50 for O=C(N[C@H]1CCCN2c3cc(Cl)c(Br)cc3Oc3ccccc3[C@H]12)C(F)(F)F (relative stereo)
100 to 10000 nM

// lookup EC50 for O=C(N[C@H]1CCCN2c3cc(Cl)ccc3Oc3cc(F)ccc3[C@H]12)C(F)(F)F (relative stereo)
10 to 100 nM

###

target: human progesterone receptor-B (Homo sapiens, UniProt P06401); construct: expressed in transfected cells; host or cells: Chinese hamster ovary (CHO) cells, line CHO-PRB-pMMTV-LUC 1E2-A2; assay: Progesterone receptor-B transactivation assay, progestagenic (agonist) activity, CHO-PRB-pMMTV-LUC 1E2-A2 cells; assay type: cell-based
Sequence (P06401 whole entry): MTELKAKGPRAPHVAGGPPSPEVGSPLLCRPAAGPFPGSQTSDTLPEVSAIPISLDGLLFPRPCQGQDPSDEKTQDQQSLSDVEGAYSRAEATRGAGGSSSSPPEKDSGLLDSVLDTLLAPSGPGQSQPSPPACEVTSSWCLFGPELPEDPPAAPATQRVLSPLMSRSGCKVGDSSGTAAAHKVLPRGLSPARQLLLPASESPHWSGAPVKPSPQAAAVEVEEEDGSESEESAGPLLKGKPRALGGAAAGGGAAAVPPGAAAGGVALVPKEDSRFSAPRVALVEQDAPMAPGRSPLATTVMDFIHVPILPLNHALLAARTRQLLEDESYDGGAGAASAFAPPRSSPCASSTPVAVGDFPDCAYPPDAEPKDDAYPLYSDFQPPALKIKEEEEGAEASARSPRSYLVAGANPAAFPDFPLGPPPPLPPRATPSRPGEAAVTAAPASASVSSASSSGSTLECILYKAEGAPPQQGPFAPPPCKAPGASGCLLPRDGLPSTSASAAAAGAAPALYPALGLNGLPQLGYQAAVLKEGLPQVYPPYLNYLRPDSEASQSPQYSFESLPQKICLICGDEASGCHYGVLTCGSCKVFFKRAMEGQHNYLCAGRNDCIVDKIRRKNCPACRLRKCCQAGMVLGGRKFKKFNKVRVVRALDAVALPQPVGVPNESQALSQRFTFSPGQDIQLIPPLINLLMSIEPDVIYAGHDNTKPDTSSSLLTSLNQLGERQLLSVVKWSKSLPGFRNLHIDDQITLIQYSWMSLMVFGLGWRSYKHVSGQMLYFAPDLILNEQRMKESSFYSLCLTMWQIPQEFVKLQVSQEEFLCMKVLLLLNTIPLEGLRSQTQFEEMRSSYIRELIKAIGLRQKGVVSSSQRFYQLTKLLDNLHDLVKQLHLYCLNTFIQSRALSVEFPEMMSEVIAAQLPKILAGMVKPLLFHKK
pEC50: −log10 of the molar value.
// reported pEC50 for each item listed

[[record]]
compound = "N[C@H]1CCCN2c3cc(F)ccc3Oc3ccccc3[C@H]12 (relative stereo)"
result_value = "5.00 to 7.00"

[[record]]
compound = "CCCN[C@H]1CCCN2c3cc(Cl)ccc3Oc3ccccc3[C@H]12 (relative stereo)"
result_value = "5.00 to 7.00"


As a next step, examine the compound that follows.
// lookup pEC50 for O=C(CF)N[C@H]1CCCN2c3cc(Cl)ccc3Oc3ccccc3[C@H]12 (relative stereo)
7.00 to 8.00
